- test: gradient 5% acetonitrile 3 min, to 50% in 2 min, to 85% in 15 min, held 3 min, 100 µL/min
- test.settings: column: Zorbax Extend-C18 2.1 x 50 mm; eluents: water / acetonitrile, 0.1% formic acid
test.readout: RP-LC retention time (s)

[[record]]
molecule = "NNC(=O)CSc1nc2scc(-c3ccccc3)c2c(=O)n1-c1ccccc1"
unit = "s"
observed_value = 838

[[record]]
molecule = "CCc1nn(CC)c(=O)c2cc(S(=O)(=O)N3CCC(Cc4ccccc4)CC3)cn12"
unit = "s"
observed_value = 1140

[[record]]
molecule = "CCOC(=O)CNC(=O)NCc1cccn1Cc1cccc(F)c1"
unit = "s"
observed_value = 810

[[record]]
molecule = "Cc1cc(NC(=O)c2cc3c(=O)n4cccc(C)c4nc3s2)no1"
unit = "s"
observed_value = 792

[[record]]
molecule = "Cn1cc(S(=O)(=O)N2CCC(C(=O)N3CCCC3)CC2)cc1C(=O)N1CCCCC1"
unit = "s"
observed_value = 681

[[record]]
molecule = "O=S(=O)(Cc1ccccc1)N1CC(n2cc(COc3ccc(F)cc3)nn2)C1"
unit = "s"
observed_value = 899

[[record]]
molecule = "CCC(C)NC(=O)NC1CCN(C2=NS(=O)(=O)C(c3cccc(Cl)c3)=C2C)CC1 (centres undefined)"
unit = "s"
observed_value = 814

[[record]]
molecule = "CCc1noc(NC(C)=O)c1-c1ccc(OC)c(S(=O)(=O)Nc2cc(Cl)ccc2OC)c1"
unit = "s"
observed_value = 876

[[record]]
molecule = "CC(=O)Nc1c(C)noc1/C=C\\c1ccc(S(=O)(=O)N2CCN(c3ncccn3)CC2)cc1"
unit = "s"
observed_value = 762

[[record]]
molecule = "COc1ccc(NC(=O)CSc2ccc(N3CCCC(C(=O)NC4CC4)C3)nn2)cc1Cl (centres undefined)"
unit = "s"
observed_value = 624

[[record]]
molecule = "O=C1CCN(C(=O)COc2ccccc2Cl)c2ccccc2N1"
unit = "s"
observed_value = 718

[[record]]
molecule = "CC(=O)Nc1ccc(SCCCC(=O)Nc2ccc3c(c2)OCCO3)nn1"
unit = "s"
observed_value = 634

[[record]]
molecule = "O=C(NCC(O)C1CCCCC1)C(c1ccccc1)c1ccccc1 (centres undefined)"
unit = "s"
observed_value = 907

[[record]]
molecule = "COc1ccc(NC(=O)c2nc(N3CCCC3)c3c(C)cc(C)nc3n2)c(C)c1"
unit = "s"
observed_value = 666

[[record]]
molecule = "O=C(CCNc1c(-c2cccc(F)c2)nc2cnccn12)N1CCOCC1"
unit = "s"
observed_value = 630

[[record]]
molecule = "COCCCNC(=O)C1Cn2cccc2C(=O)N1CC(C)C (centres undefined)"
unit = "s"
observed_value = 646

[[record]]
molecule = "O=C(c1ccc2c(c1)OCO2)N1CCN(c2ncnc3c2CCC3)CC1"
unit = "s"
observed_value = 588

[[record]]
molecule = "CCN1CCCn2cc(S(=O)(=O)N3CCN(c4cccc(Cl)c4)CC3)cc2C1=O"
unit = "s"
observed_value = 894

[[record]]
molecule = "CCc1nc2c(NC(=O)c3cccs3)cccn2n1"
unit = "s"
observed_value = 761

[[record]]
molecule = "Cn1c(=O)c(=O)n(C)c2cc(N3CCCCC3)c(NC(=O)CN3CCOCC3)cc21"
unit = "s"
observed_value = 608

[[record]]
molecule = "COc1ccc(C2C(C(=O)N3CCCC(C)C3)c3cc(OC)c(OC)cc3C(=O)N2C)cc1 (centres undefined)"
unit = "s"
observed_value = 817

[[record]]
molecule = "CCNc1nc(NCC)n2c(SCC(=O)Nc3ccccc3[N+](=O)[O-])nnc2n1"
unit = "s"
observed_value = 623

[[record]]
molecule = "Cc1cc(C(=O)N2CCCn3nc(-c4ccc(F)cc4)cc3C2)nn1C"
unit = "s"
observed_value = 629

[[record]]
molecule = "Cc1ccc2[nH]cc(CCNC(=O)Nc3ccc(Cl)c(Cl)c3)c2c1"
unit = "s"
observed_value = 1050

[[record]]
molecule = "O=S(=O)(c1ccc(-c2noc(-c3ccc(Cl)cc3)n2)cc1)N1CCCC1"
unit = "s"
observed_value = 1260

[[record]]
molecule = "CCn1cc(-c2ccc(Cl)cc2)cc1C(=O)NCCCN(C)C"
unit = "s"
observed_value = 694

[[record]]
molecule = "O=C(NC1CCCCC1)C1CCN(C(=O)C2Sc3ccccc3NC2=O)CC1 (centres undefined)"
unit = "s"
observed_value = 732

[[record]]
molecule = "CC1CCCN(c2ccn3c(=O)n(CC(=O)NCc4ccc(Cl)cc4)nc3n2)C1 (centres undefined)"
unit = "s"
observed_value = 821

[[record]]
molecule = "COc1ccc(C(=O)NC(CC(C)C)C(=O)Nc2nc3ccccc3[nH]2)cc1 (centres undefined)"
unit = "s"
observed_value = 725

[[record]]
molecule = "Cc1nc2cc(N3CCC(C(=O)O)CC3)cnc2nc1C"
unit = "s"
observed_value = 611

[[record]]
molecule = "CC(NC(=O)Cn1cnc(-c2noc(-c3cccnc3)n2)c1)c1ccccc1 (centres undefined)"
unit = "s"
observed_value = 823

[[record]]
molecule = "Cc1cccn2cc(-c3cccc(NS(=O)(=O)c4ccc(Cl)cc4)c3)nc12"
unit = "s"
observed_value = 686

[[record]]
molecule = "COC(=O)N1CCc2ccccc2C1C(=O)NCCCn1ccnc1 (centres undefined)"
unit = "s"
observed_value = 556

[[record]]
molecule = "COc1cc(OC)c(NS(=O)(=O)c2cc(-c3c(C)noc3NC(C)=O)ccc2OC)cc1Cl"
unit = "s"
observed_value = 792

[[record]]
molecule = "CCOC(=O)C1CCN(C(=O)C2COC3(CCCCC3)N2C(=O)c2ccccc2)CC1 (centres undefined)"
unit = "s"
observed_value = 808

[[record]]
molecule = "CCN(c1cccc(C)c1)S(=O)(=O)c1ccc2c(c1)N(C(C)=O)CCCS2"
unit = "s"
observed_value = 986

[[record]]
molecule = "CCOC(=O)c1c(C)c(CCC(=O)N2CCN(c3ccccn3)CC2)n(C)c1C"
unit = "s"
observed_value = 616

[[record]]
molecule = "O=S(=O)(Cc1cccc(Cl)c1)N1CCc2nc[nH]c2C1"
unit = "s"
observed_value = 616

[[record]]
molecule = "CC(C)N1C(=O)C(C)(C(=O)NCc2ccc(F)cc2)Oc2cccnc21 (centres undefined)"
unit = "s"
observed_value = 984


====

- test: gradient 5% acetonitrile 3 min, to 50% in 2 min, to 85% in 15 min, held 3 min, 100 µL/min
- test.settings: column: Zorbax Extend-C18 2.1 x 50 mm; eluents: water / acetonitrile, 0.1% formic acid
Decide using RP-LC retention time alone. Strictly below 700 s: true (1). Equal to or above 700 s: false (0).

[[record]]
compound = "Cc1sc(NC(=O)COc2ccc(Cl)cc2)nc1-c1ccc2c(c1)NC(=O)C(C)O2 (stereo not given)"
label_value = "false (0)"

[[record]]
compound = "c1ccc2oc(SCc3cn4ccsc4n3)nc2c1"
label_value = "true (1)"

[[record]]
compound = "CCOC(=O)N1CCC(N2CCCC(COc3ccccc3C(=O)N3CCCC3)C2)CC1 (stereo not given)"
label_value = "true (1)"

[[record]]
compound = "COc1cccc(-c2noc(Cn3c(=O)n(-c4cccc(F)c4)c(=O)c4sccc43)n2)c1"
label_value = "false (0)"

[[record]]
compound = "CCCOc1ccc(CN2C[C@@H](CO)[C@H](N(C)C)C2)cc1OC"
label_value = "true (1)"

[[record]]
compound = "Cc1ccn2c(NC(=O)c3ccc(F)cc3)c(-c3ccc(F)cc3)nc2c1"
label_value = "true (1)"

[[record]]
compound = "COCc1c(C(=O)O)nnn1-c1ccc(C)cc1F"
label_value = "false (0)"

[[record]]
compound = "O=C(c1ccc(Cl)cc1)N1CCCC(c2nnc(-c3ccccc3)o2)C1 (stereo not given)"
label_value = "false (0)"

[[record]]
compound = "CCC(=O)N1CCc2cc(N3CC(C(=O)NC(C)CC)CC3=O)ccc21 (stereo not given)"
label_value = "true (1)"

[[record]]
compound = "COC(=O)c1ccc(NC(=O)Cc2csc(NC(=O)c3ncccn3)n2)cc1"
label_value = "true (1)"


====

- test: gradient 5% acetonitrile 3 min, to 50% in 2 min, to 85% in 15 min, held 3 min, 100 µL/min
- test.settings: column: Zorbax Extend-C18 2.1 x 50 mm; eluents: water / acetonitrile, 0.1% formic acid
Below: a set of entries, each annotated with reported RP-LC retention time.
test.readout: RP-LC retention time (s)

[[record]]
compound = "CS(=O)(=O)Nc1ccc(-c2noc(CN3C(=O)COc4ccccc43)n2)cc1"
test_readout = "RP-LC retention time"
observed_value = 805

[[record]]
compound = "CC(=O)c1ccc(Oc2ccccc2)cc1"
test_readout = "RP-LC retention time"
observed_value = 920

[[record]]
compound = "COc1ccccc1N1CCN(C(=O)Cn2ncc3c(c2=O)N(C)C(=O)CS3)CC1"
test_readout = "RP-LC retention time"
observed_value = 661

[[record]]
compound = "Cc1nc(C#Cc2ccnc(Cl)c2)c(C)n1-c1ccc(OC(F)(F)F)cc1"
test_readout = "RP-LC retention time"
observed_value = 898

[[record]]
compound = "O=C(Nc1cnn(-c2ncc(N3CCCCC3)cn2)c1)NC1CCCC1"
test_readout = "RP-LC retention time"
observed_value = 754

[[record]]
compound = "O=C(NCc1ccc2c(c1)OCO2)c1cnn2c3c(cnc12)CCCCCC3"
test_readout = "RP-LC retention time"
observed_value = 1000

[[record]]
compound = "Cc1cccc(NC(=O)C2(C)CCCCC(=O)N2)c1 (stereo not given)"
test_readout = "RP-LC retention time"
observed_value = 695

[[record]]
compound = "COc1ccc(NC(=O)NC2CCN(c3ccc(C)cc3)C2=O)cc1OC (stereo not given)"
test_readout = "RP-LC retention time"
observed_value = 720

[[record]]
compound = "COc1ccc(C(=O)NC2CCN(c3cc(-c4cccs4)[nH]n3)C2)cc1F (stereo not given)"
test_readout = "RP-LC retention time"
observed_value = 720

[[record]]
compound = "COCCC1(NC(=O)C2CCOCC2)CCN(C(=O)C2CC=CC2)CC1"
test_readout = "RP-LC retention time"
observed_value = 632

[[record]]
compound = "Cn1c(=O)c(NCCc2c[nH]c3ccccc23)nc2ccncc21"
test_readout = "RP-LC retention time"
observed_value = 619

[[record]]
compound = "Cc1ccc2c(Nc3ccc4c(c3)OCCO4)c(C(=O)N3CCCC3)cnc2n1"
test_readout = "RP-LC retention time"
observed_value = 592

[[record]]
compound = "CCc1noc([C@@H]2CC(F)(F)CN2C(=O)c2cocn2)n1"
test_readout = "RP-LC retention time"
observed_value = 733

[[record]]
compound = "CS(=O)(=O)N1CC(c2nc(-c3cccnc3)no2)C2(CCOCC2)C1 (stereo not given)"
test_readout = "RP-LC retention time"
observed_value = 630

[[record]]
compound = "CN(CC1CCCO1)C1CCN(C(=O)C2CCN(c3ccc(-c4cccs4)nn3)CC2)CC1 (stereo not given)"
test_readout = "RP-LC retention time"
observed_value = 567

[[record]]
compound = "CCN1CCCC1CNC(=O)CCC(=O)N1CCCn2nc(-c3cn(C)c4ccccc34)cc21 (stereo not given)"
test_readout = "RP-LC retention time"
observed_value = 620

[[record]]
compound = "Cc1ccsc1CN1CCN(c2cnn3cnnc3c2)CC1"
test_readout = "RP-LC retention time"
observed_value = 547

[[record]]
compound = "COc1ccc(NC(=O)CSc2nc3nc(C)cc(C)n3n2)c(OC)c1"
test_readout = "RP-LC retention time"
observed_value = 713

[[record]]
compound = "O=C(Cn1ccn2nc(-c3ccccc3)c(CO)c2c1=O)NCc1ccc2c(c1)OCO2"
test_readout = "RP-LC retention time"
observed_value = 738

[[record]]
compound = "COc1c(C(=O)NCc2ccc(C)o2)sc2ccc(Cl)cc12"
test_readout = "RP-LC retention time"
observed_value = 1120

